Test system: C57BL6/J mice
Assay: Hypoglycemia test using C57BL6/J mice
Assay type: in vivo
Settings: oral, ad libitum fed C57BL6/J mice, plasma glucose AUC 0-6 hours vs control group
// reported ED20 (dose at which the plasma glucose AUC decreasing percentage was 20%) for each item listed
Report the figure in mg/kg without appending any unit label.

// solved cases for ED20 (dose at which the plasma glucose AUC decreasing percentage was 20%) follow
• CC(F)(F)c1ccc([C@@H](C[C@H]2CCC(=O)N2)c2ccc(C3CC3)c(=O)[nH]2)cc1 (single isomer, unassigned) [Compound B] = 15.6
• CCc1ccc([C@@H](C[C@H]2CCC(=O)N2)c2ccc(C3CC3)c(=O)[nH]2)cc1 = 11.5

Incoming: Which ED20 (dose at which the plasma glucose AUC decreasing percentage was 20%) value belongs to CC(F)(F)c1ccc([C@@H](C[C@H]2CCC(=O)N2)c2ccc(C3CC3)c(=O)[nH]2)cc1 [Compound [1]] ?
Outgoing: 4.2

Incoming: Now consider O=C1CC[C@H](C[C@H](c2ccc(C(F)F)cc2)c2ccc(C3CC3)c(=O)[nH]2)N1 .
Outgoing: 32.0

---

// reported EC50 for each item listed
Target: human liver GK (Homo sapiens, UniProt P35557)
Construct: GST (glutathione S-transferase) (N)
Sequence (P35557 1-466 isoform P35557-2): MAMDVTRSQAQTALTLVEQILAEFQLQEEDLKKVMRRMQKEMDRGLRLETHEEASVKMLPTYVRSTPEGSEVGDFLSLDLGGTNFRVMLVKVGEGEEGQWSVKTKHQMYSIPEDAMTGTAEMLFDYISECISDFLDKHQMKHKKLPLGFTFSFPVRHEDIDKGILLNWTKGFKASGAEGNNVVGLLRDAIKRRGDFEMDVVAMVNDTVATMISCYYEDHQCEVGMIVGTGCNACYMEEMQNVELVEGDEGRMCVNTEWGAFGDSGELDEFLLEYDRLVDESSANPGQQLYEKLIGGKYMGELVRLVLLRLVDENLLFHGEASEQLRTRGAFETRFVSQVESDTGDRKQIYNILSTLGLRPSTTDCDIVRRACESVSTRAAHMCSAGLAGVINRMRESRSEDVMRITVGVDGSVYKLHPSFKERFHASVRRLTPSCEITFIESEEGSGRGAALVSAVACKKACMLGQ
Assay: GK activation test
Conditions: GST-fused human liver GK, 4 mM glucose, 2 mM ATP, absorbance at 405 nm after 15 minutes; read-out: EC50 (test compound concentration needed to activate 50% of the maximum activation ability)
Procedure: The GK activation test for the test compounds was carried out by the method of Van Schaftingen et al. (Eur. J. Biochem. 179:179-184, 1989) with partial modifications. The GK activity was measured by the change in the absorbance based on an amount of thio-NADH, which is a reduced form product converted from thio-NAD+ (thionicothinamide-adeninedinucleotide) when dehydrogenating glucose 6-phosphate, produced by GK using glucose as a matrix, with G6PDH (glucose-6-phosphate dehydrogenase). […]
Write your answer as a measured quantity: the number, then the unit.

// solved cases for EC50 follow
* CCc1ccc([C@@H](C[C@H]2CCC(=O)N2)c2ccc(C3CC3)c(=O)[nH]2)cc1 [Compound A] | 520 nM
* CC(F)(F)c1ccc([C@@H](C[C@H]2CCC(=O)N2)c2ccc(C3CC3)c(=O)[nH]2)cc1 [Compound [1]] | 295 nM
* O=C1CC[C@H](C[C@H](c2ccc(C(F)F)cc2)c2ccc(C3CC3)c(=O)[nH]2)N1 [Compound C] | 597 nM

Okay, next one:
Incoming: Request: EC50, test system human liver GK (Homo sapiens, UniProt P35557), entry CC(F)(F)c1ccc([C@@H](C[C@H]2CCC(=O)N2)c2ccc(C3CC3)c(=O)[nH]2)cc1 (single isomer, unassigned) [Compound B]
Outgoing: 1330 nM

All values here come from patent US9695148B2.
